# Test system: lysine peptide Ac-RFAAKAA-COOH
# experiment_summary: efficacy of lysine peptide change (negative = depletion) (% activity); higher = less depletion
# particulars: incubation time: 24 h
We use -0.9 as the dividing line for efficacy of lysine peptide change: on or above the line is criterion met, below is criterion not met.

{"molecule": "CC(C)(C)OC(=O)c1ccc(O)cc1 [tert-Butyl 4-hydroxybenzoate]", "label_class": "criterion met"}
{"molecule": "CC(O)C#CC(C)O (centres undefined)", "label_class": "criterion not met"}
{"molecule": "C=CC(=O)OCCCCCCOC(=O)C=C [1,6-Hexanediol diacrylate]", "label_class": "criterion met"}
{"molecule": "Cc1ccc(O)c2ncccc12", "label_class": "criterion not met"}
{"molecule": "Nc1ccc(Nc2ccccc2)cc1", "label_class": "criterion not met"}
{"molecule": "CC(C)c1ccc2cc(C(C)C)ccc2c1", "label_class": "criterion met"}
{"molecule": "CCCCCCCCCCCCCC[N+](C)(C)C [Tetradonium bromide]", "label_class": "criterion met"}
{"molecule": "CCOC(=O)CC(SP(=S)(OC)OC)C(=O)OCC (centres undefined)", "label_class": "criterion met"}
{"molecule": "c1ccc(-c2ccccn2)nc1", "label_class": "criterion met"}
